Where these numbers come from: patent US20240132624A1

Molecular target: T1, cyno FcRn/b2M (cyno, UniProt Q8SPV9 24-297; Q8SPW0 21-119, biotinylated)
T1 construct: bought recombinant biotinylated protein (Immunitrack ITF05 or ACRO FCM-C82W5); also called cFcRn; cFcRn/cb2M
T1 sequence (Q8SPV9 24-297 limits assumed, chain 1 of 2): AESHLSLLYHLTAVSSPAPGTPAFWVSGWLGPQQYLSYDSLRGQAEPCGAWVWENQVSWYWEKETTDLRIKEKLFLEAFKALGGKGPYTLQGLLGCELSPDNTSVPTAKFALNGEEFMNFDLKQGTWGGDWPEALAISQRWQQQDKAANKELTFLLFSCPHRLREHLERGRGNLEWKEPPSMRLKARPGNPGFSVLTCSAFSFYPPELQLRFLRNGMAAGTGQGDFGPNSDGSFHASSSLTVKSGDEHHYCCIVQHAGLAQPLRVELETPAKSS
T1 sequence (Q8SPW0 21-119 limits assumed, chain 2 of 2): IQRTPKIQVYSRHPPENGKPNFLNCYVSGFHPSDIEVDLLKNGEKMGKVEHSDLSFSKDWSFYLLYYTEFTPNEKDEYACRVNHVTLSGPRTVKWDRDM
Assay: SPR pH 6.0;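 also: surface plasmon resonance kinetics at 25 °C, diluted periplasmic extracts injected over immobilized ligand surfaces, 120 s association then 600–3600 s dissociation, running buffer containing 150 mM NaCl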
Quantity Kind: koff (s⁻¹)

binder="T0263018B11 S52aM (VHH, name in Kabat numbering, FLAG3-His6 tagged) VHH: EVQLVESGGGVVQPGGSLRLSCAASGFTFSSYAMYWVRQAPGKGLEWVSAISMGGGSTDYADSVKGRFTISRDNSKNTLYLQMNSLRPEDTALYYCAADTLYTSLTWYSYWGQGTLVTVSS" u=s⁻¹ recorded_result=0.00027
binder="T0263018B11 S52T (VHH, name in Kabat numbering, FLAG3-His6 tagged) VHH: EVQLVESGGGVVQPGGSLRLSCAASGFTFSSYAMYWVRQAPGKGLEWVSAITSGGGSTDYADSVKGRFTISRDNSKNTLYLQMNSLRPEDTALYYCAADTLYTSLTWYSYWGQGTLVTVSS" u=s⁻¹ recorded_result=0.0017
binder="T0263018B11 S31K (VHH, name in Kabat numbering, FLAG3-His6 tagged) VHH: EVQLVESGGGVVQPGGSLRLSCAASGFTFSKYAMYWVRQAPGKGLEWVSAISSGGGSTDYADSVKGRFTISRDNSKNTLYLQMNSLRPEDTALYYCAADTLYTSLTWYSYWGQGTLVTVSS" u=s⁻¹ recorded_result=0.0011
binder="T0263018B11 T96V (VHH, name in Kabat numbering, FLAG3-His6 tagged) VHH: EVQLVESGGGVVQPGGSLRLSCAASGFTFSSYAMYWVRQAPGKGLEWVSAISSGGGSTDYADSVKGRFTISRDNSKNTLYLQMNSLRPEDTALYYCAADVLYTSLTWYSYWGQGTLVTVSS" u=s⁻¹ recorded_result=0.00036
